subjectOfTest: T1, human C1s (human, UniProt P09871 16-688)
T1 construct: Analyte in the Biacore assays; also called hC1s; serum-derived human C1s (CompTech)
T1 sequence: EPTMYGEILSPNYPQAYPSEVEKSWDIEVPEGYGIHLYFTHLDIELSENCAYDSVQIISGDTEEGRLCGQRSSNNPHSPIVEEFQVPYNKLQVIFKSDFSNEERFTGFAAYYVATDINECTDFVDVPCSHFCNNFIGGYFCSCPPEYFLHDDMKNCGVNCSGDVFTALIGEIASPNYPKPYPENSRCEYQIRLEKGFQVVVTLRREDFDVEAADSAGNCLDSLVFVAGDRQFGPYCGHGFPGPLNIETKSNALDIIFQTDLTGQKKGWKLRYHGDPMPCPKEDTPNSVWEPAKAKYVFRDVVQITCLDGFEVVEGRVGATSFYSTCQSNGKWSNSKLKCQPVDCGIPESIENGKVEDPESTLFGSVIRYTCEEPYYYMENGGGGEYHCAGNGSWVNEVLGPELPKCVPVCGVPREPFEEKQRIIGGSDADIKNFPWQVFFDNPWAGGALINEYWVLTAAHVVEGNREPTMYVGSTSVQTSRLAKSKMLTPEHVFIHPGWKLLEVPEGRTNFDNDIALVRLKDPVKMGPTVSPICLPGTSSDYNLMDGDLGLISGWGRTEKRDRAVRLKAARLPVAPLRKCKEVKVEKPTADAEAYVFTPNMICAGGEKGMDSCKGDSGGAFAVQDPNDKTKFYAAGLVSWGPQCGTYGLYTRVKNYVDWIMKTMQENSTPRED
protocolSummary: SPR (Biacore T200, 37C), Ab captured on protein A/G; pH 5.8, 3 uM Ca
parameterMeasured: kon (M⁻¹ s⁻¹)
Reply numerically in M⁻¹ s⁻¹, unit not repeated.

{"binder": "C1_IPN92H0033-SG4GK/IPN93L0090-SK1 (antibody, human IgG4 S228P, kappa, name in Kabat numbering, V domains shown, VL substitutions from IPN009VK3, Kabat numbering; also called IPN92H0033/IPN93L0090) VH: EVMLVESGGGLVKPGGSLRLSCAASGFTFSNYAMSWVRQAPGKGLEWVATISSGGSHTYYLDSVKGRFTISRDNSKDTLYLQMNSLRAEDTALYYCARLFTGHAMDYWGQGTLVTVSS VL: QIVLTQSPATLSLSPGERATLSCTASSSVSSSKLHWYQQKPGKAPKLWIYSTSNLASGVPSRFSGSGSGTDYTLTISSLQPEDFATYYCHQYYRLHPITFGQGTKLEIKR", "measurement": 595000}

Then there is this binder:
Exam item: Can you look up the measured kon of C1_IPN92H0282-SG4GK/IPN93L0024-SK1 (antibody, human IgG4 S228P, kappa, name in Kabat numbering, V domains shown, Substitutions from IPN009VH2, Kabat numbering; also called IPN92H0282/IPN93L0024) VH: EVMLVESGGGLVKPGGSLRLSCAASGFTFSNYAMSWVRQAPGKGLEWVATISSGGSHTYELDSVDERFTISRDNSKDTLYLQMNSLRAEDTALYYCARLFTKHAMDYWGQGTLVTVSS VL: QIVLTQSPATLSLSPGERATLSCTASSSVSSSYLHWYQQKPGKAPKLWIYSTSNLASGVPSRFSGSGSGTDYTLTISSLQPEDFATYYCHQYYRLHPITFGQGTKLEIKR for me?
Marked response: 382000

meta.source: patent US20210032365A1
